# System Tested: UniProt P17612
# Assay Remarks: PKA inhibitor IC50 determination
# Format: biochemical
pIC50: −log10 of the molar value.
Test Readout: pIC50

# Structure String, Result
measured = [
    ("Nc1ncnc2c1ncn2[C@@H]1O[C@H](C(=O)O)[C@@H](O)[C@H]1O", "< 3.00"),
]

From: paper PMC2749490
